# Tested on: K4 kissing-loop RNA reporter
# test-details: apparent KD of K4 kissing-loop reporter; higher = weaker reporter binding
# measurement-parameters: Eterna round: R107; input ligand: tryptophan 2.4 mM
Values of apparent KD of K4 kissing-loop reporter greater than or equal to 0.2 µM map to T; values below map to F.

Does apparent KD of K4 kissing-loop reporter meet or surpass 0.2 µM for UGUCAUUGGUCGGCCGCCACUUCAUAUAGAGUGAUGUUCUGAAAGACGGAUCGAAAGAUCUGUCGAAGGACCGGGACCGAUGACU [FiskerMod 12 - Jieux - Same State - Tryptophan B] ?
T

Does apparent KD of K4 kissing-loop reporter meet or surpass 0.2 µM for AUGCGCGCGGCGGCCGCCACUCGCAUGAGAGUGAUGUUCUCGCCGGGCCCGCAAGGGCCCGGUGUGAGGACCGGGCCGGGCUGCG [#2 Same State - Tryptophan B Attempt #18 (HarryS)] ?
F

Does apparent KD of K4 kissing-loop reporter meet or surpass 0.2 µM for CUAGCCGGGAAAGGAUAUACACACGCACAUAACGAGUGAUGUUCGUUAAUACCAACUUGGUUAACUGUAGAAGGUUCAUCGUCAC [theeternabot_sameState_KL_FMN_B_36] ?
T

Does apparent KD of K4 kissing-loop reporter meet or surpass 0.2 µM for UGGGAUGGGCGAGGAUAUGGUGAGGUGGCGGUUGUUAGUGAUGUUGGUGAUGCUAGUGAUGUUUGUCCAGAAGGCGCGGGAUUUU [BDazzled] ?
F

Does apparent KD of K4 kissing-loop reporter meet or surpass 0.2 µM for UUAUAACCCAGUGAUGUUGGGUAGCGGCCACGAGGACCGGUACGGCCGCCACUCGAGGUUUGACCAGUGAUGUUGGACUAUUUGG [Same state Tryptophan A GF 5] ?
F

Does apparent KD of K4 kissing-loop reporter meet or surpass 0.2 µM for CCAGCAAAGCUGGUCGCCAAACAACGGGCACGAGGACCGGUACGGCCGCCACUCGUGAGGACGAGUGAUGUUCGUUCACGGGCGA ?
T

Does apparent KD of K4 kissing-loop reporter meet or surpass 0.2 µM for CAUGGAGUGAUGCUCCAUGAUCGGGCUUGGCAGGAUAUGGGAUUUUCCAGAAGGGUCGAUCCCAGCGAGUGAUGUUCGCUGGUCU [Exclusion FMN A GF 26] ?
F

Does apparent KD of K4 kissing-loop reporter meet or surpass 0.2 µM for CCCGCGUCGUUAGUGAUGUUGACUUCUGAUACCAGUCGCAGGUAGGACCCUUGGCAGCAGCAGUUUUGUUAUAUGUAGGAUCCAG [theeternabot_exclusion_KL_Theo_A_36] ?
T

Does apparent KD of K4 kissing-loop reporter meet or surpass 0.2 µM for AUUAAUUUCAGAGGAUAUGCUUAAUUGAUUAAAUAUAAUCUAUUAUGCAGUGAUGUUGCAUUUUUUGCAGAAGGCUGAUUUAUAA [JR_SSFMNB_Sub017] ?
T

Does apparent KD of K4 kissing-loop reporter meet or surpass 0.2 µM for UGAUACCAGACUGAUACCAGCCACAGAGUCAAGACUCUGAUAAAGGUAACCAGUGAUGUUGGCCCUUGGCAGCAGUCUGGUAUCU [TheoBX 16 #SwitchBubble #StaticStem] ?
F

Does apparent KD of K4 kissing-loop reporter meet or surpass 0.2 µM for AGAGUUAUGAGAGGAUAUGCGGCUAGUACUCAAAGAGUACUAGCAGCGGAGUGAUGUUCUGUGAAAGCAGAAGGUUCAUAACUCA [#07 K4 FMN B Same State] ?
T

----------
# Tested on: MS2 coat protein
# test-details: apparent KD of MS2 coat protein; higher = weaker reporter binding
# measurement-parameters: Eterna round: R107; input ligand: theophylline 20 uM
Values of apparent KD of MS2 coat protein greater than or equal to 20 nM map to True; values below map to False.

Does apparent KD of MS2 coat protein meet or surpass 20 nM for GUUAUGGACCUGGAUACCAGCUGGUACGAGGGCGGUCUACAUGAGGAUCACCCAUGUGUCAGCCCUUGGCAGCCAGCAACCCGCU [Raquleer] ?
False

Does apparent KD of MS2 coat protein meet or surpass 20 nM for AUACAUGAGGAUCACCCAUGUCAUUCAGAAGGAGCGUCAUUUUAGACAGGUAGGUCGCUGAUAGUAUUUUUAUACUUUAUGUUUA [JR_SSArginiA_Sub015] ?
True

Does apparent KD of MS2 coat protein meet or surpass 20 nM for UAACAUGAGGAUCACCCAUGUAUACUUAGUCGAGGACCGGUACGGCCGCCACUCGUACUUCAAGAUUUGGCGGAAAAUGUAUGUA [JR_ExcTryptoA_Sub021] ?
False

Does apparent KD of MS2 coat protein meet or surpass 20 nM for GGGUGGUAGGCGGCCGCCACUGAUUUUUAUUUAUAGAUGACAUGAGGAUCACCCAUGUAGAUAUGCAGGACCGGGCCUGUUGUUU [aaaO] ?
True

Does apparent KD of MS2 coat protein meet or surpass 20 nM for AGGUGGGUCUGAAGGAGCGCGAUAACAUGAGGAUCACCCAUGUUAAAUGGUACAUGAUACUCGCAGGUAGGUCGCAGUAAAACCA [Same State Arginine B GF 12] ?
True

----------
# System: K4 kissing-loop RNA reporter;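 further: bound reporter read as fluorescence of individual clusters on recovered sequencing chips by microscopy, with normalized cluster intensities fitted with a binding model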
# test-details: apparent KD of K4 kissing-loop reporter; higher = weaker reporter binding
# measurement-parameters: Eterna round: R107; input ligand: theophylline 20 uM
quantity-name: apparent KD of K4 kissing-loop reporter (nM)
Note: unit nM is implicit; provide only the numeric part.

# return recorded apparent KD of K4 kissing-loop reporter for entry GCAGACACGCAGUGAUGUUGCGAAACGGAAGGAGCGCGUGAAAACGCAGGUAGGUCGCCGACACAUAAAUUAUAAUUUUGUUUGC [Arginine A K4 14]
237

# return recorded apparent KD of K4 kissing-loop reporter for entry AGGAUGUAGUGAUGUUAUAUAAGAAGUAAACGAGGACCGGUACGGCCGCCACUCGAAGCGGCUACUAGCGCGCCGCGAGGCGCGC [ExTryptoA.Cb]
361

# return recorded apparent KD of K4 kissing-loop reporter for entry AAGGGCGGGACUUCCUCGCCGGAUAGAGAUACCAGCCCUGCAAAGGGCCCUUGGCAGCUCACUGACCUCAGUGAUGUUGAGGUUC [Maanveri]
209

# return recorded apparent KD of K4 kissing-loop reporter for entry UCCUGCUGUCAGCCACGAAAGUGGAUUGAUACCAGAGUCGAAAGACUCCCUUGGCAGCGAGUGAUGUUCGCAGCAGGUAAAUAAA [MatMod 3 - Jieux - Exclusion - Theophylline A]
356

# return recorded apparent KD of K4 kissing-loop reporter for entry CGCACACUUGUUGAUACCAGAAGCCGACCGGAAACAUCAUUGAGUGAUGUUCAAGCUGUUUUCCCUUGGCAGCAAACGAGUGGUC [theeternabot_exclusion_KL_Theo_B_22]
132

# return recorded apparent KD of K4 kissing-loop reporter for entry GCCGUCCGGUCGCAAGACCGGACAGCCGAUACCAGCGCGAAGGCGCGCCCUUGGCAGCGGCACCGAGUGAUGUUCGGUCAGGCGG [#2 Same State - Theophylline A Attempt #2 (HarryS)]
128

----------
For each record, write down the corresponding apparent KD of MS2 coat protein.
# Test system: MS2 coat protein
# test-details: apparent KD of MS2 coat protein; designed switch direction (-1 OFF switch, 1 ON switch): 1; higher = weaker reporter binding
# measurement-parameters: input ligand: none
Field note: include the unit after the figure.

# return recorded apparent KD of MS2 coat protein for entry GCUAGAAUUAAUGCCUACAUGAGGAUCACCCAUGUAUGUAGGCAGGAUAUCGUUUGCAAAGCAAACGAGAAGGGCCUUACUAGC [Mat - Same State NG 3 - JL Mod - D28] (Eterna round: R96, puzzle: Same State NG 3)
63.7 nM

# return recorded apparent KD of MS2 coat protein for entry AGCUAGUACCGAGGAUAUACGAACAUGAGGAUCACCCAUGUAUACAUGGUUUAAUGAGACUACAUGUAGAAGGCGGUACUAGCA [SameState NG2 #11] (Eterna round: R96, puzzle: Same State NG 2)
624 nM

# return recorded apparent KD of MS2 coat protein for entry AAAGGAUGAUGUUACAUGAGGAUCACCCAUGUUGUGAUAACUAAGGAUAUGUGUUUAACCAGUUAAUAGAAGGUAGGAUCAUAA [AK SSNG3-V2-4] (Eterna round: R96, puzzle: Same State NG 3)
124 nM

# return recorded apparent KD of MS2 coat protein for entry UGGUACAUGGGAGGAUAUCUCAUGGAGACAUGAGGAUCACCCAUGUAGAUGGGCGGUAACGCCGGAGAGAAGGCCCAUGUACCU [JL SSNG1 3.70] (Eterna round: R96, puzzle: Same State NG 2)
58.1 nM

# return recorded apparent KD of MS2 coat protein for entry AGCCGAGACUGAGGAUAUUUUAAUCUACAUGAGGAUCACCCAUGUAACAACACGUGGUAUUGAUAGAAGAAGGCGGCUCGGCGC [Omei SS(NG)2 C] (Eterna round: R96, puzzle: Same State NG 2)
64 nM

# return recorded apparent KD of MS2 coat protein for entry AUUGGGUAACGAGGAUAUCGUUUUUGUUUUCUUCGAGAAGGCGUUAUUGUUUAUUUCUAUUGUUACAUGAGGAUCACCCAUGUU [JR_SSNG1_Sub055] (Eterna round: R96, puzzle: Same State NG 1)
21.5 nM

# return recorded apparent KD of MS2 coat protein for entry GCAGUGGCGGUAGGAUAUCUAGGAUAUGGGAAAGACUAAGUCUGUAGGUCACCUAACCCAGAAGGAGAGAAGGACCCUGUAAGG [pwkr ssNG2 2FMN + F9.21] (Eterna round: R96, puzzle: Same State NG 2)
222 nM

# return recorded apparent KD of MS2 coat protein for entry UCGUUCAUCGUAGGAUAUCUAGGAUAUGAACGAGGAUCACCCGAGCAGCAUCAGCGCAUCAGAGGAGAGAAGGACGCUGAUGCG [pwkr ssNG2 2F5 2FMN.20] (Eterna round: R96, puzzle: Same State NG 2)
84.8 nM

# return recorded apparent KD of MS2 coat protein for entry AUUAAUUAUGCAGGAUAUGAUUAACAUGAGGAUCACCCAUGUGGUGUUGUGAGUAAGGAGAGUGAUCAGAAGGGCAUUUUUUUU [JMF's solution 66] (Eterna round: R96, puzzle: Same State NG 2)
449 nM

# return recorded apparent KD of MS2 coat protein for entry UGGUGUAACAUGAGGAUCACCCAUGUCACAACCCGGAUAGAGUAGGAUAUGGGCUGAUCACGCAUCCAGAAGGGCUCAUACUUU [Eternabot solution 19] (Eterna round: R96, puzzle: Same State NG 3)
16.8 nM

# return recorded apparent KD of MS2 coat protein for entry GCUAGGAUAUGACGAGGAUCACCCGUUAGAAGGAGCUUCGGCUAGGAUAUGACGAGGAUCACCCGUUAGAAGGAGCUGUACUCU [pwkr ssNG3 DX 2xF5 +2xFMN.9] (Eterna round: R96, puzzle: Same State NG 3)
92.3 nM

# return recorded apparent KD of MS2 coat protein for entry GCGAGCGUACUUGCUACAUGAGGAUCACCCAUGUUUAUUGGACAGGAUAUGGUACCGUUUCGGUACCAGAAGGGUCCACAUGUG [JL SSNG3 3.86] (Eterna round: R96, puzzle: Same State NG 3)
289 nM

# return recorded apparent KD of MS2 coat protein for entry GCUCGAUGAGCUGUUUACAUGAGGAUCACCCAUGUAGAUGCGGAGGAUAUUUACGUGCUUUAUGUAGAGAAGGCCGUAUCGAGC [SameState NG3 #80] (Eterna round: R96, puzzle: Same State NG 3)
24.1 nM

# return recorded apparent KD of MS2 coat protein for entry UUGUUUUGUAAUUAACAUGAGGAUCACCCAUGUCUUGGCUCAGAGGAUAUACAUGUUUGUUUGUAGUAGAAGGCUGUUUGUUGU [JR_SSNG3_Sub095] (Eterna round: R96, puzzle: Same State NG 3)
131 nM

# return recorded apparent KD of MS2 coat protein for entry CCGGGUAAUGGAGGAUAUGGAGCCUUAUUGGCUCCAGAAGGCUAACAUGAGGAUCACCCAUGUAGUCCGGCGGUCAAUAGACCG [Eli NG1ss - 66] (Eterna round: R96, puzzle: Same State NG 1)
19.2 nM

# return recorded apparent KD of MS2 coat protein for entry AGUAUACAUGAGGAUCACCCAUGUCUGUAACGGACAGGAUAUGCGUUGCAUCACUGUAAUGCAGAAGGGUCCUGUA [Same State 1 - Mod of JMF's solution 1 v.2] (Eterna round: R96, puzzle: Same State 1)
202 nM

# return recorded apparent KD of MS2 coat protein for entry UCUGCAAUUAACGCCUACAUGAGGAUCACCCAUGUAUGUAGGCAGGAUAUCGUUUGCUUUGCAAACGAGAAGGGCUGUAGUAGC [salish99_SSNG3_R04_001] (Eterna round: R96, puzzle: Same State NG 3)
61.6 nM

# return recorded apparent KD of MS2 coat protein for entry GUUAGGAAUCUAGCAAACAUGAGGAUCACCCAUGUUAGUGGGAAGGAUAUGGUACAGAAACUGUACCAGAAGGUCUUAUUGAUU [Omei SS(NG) 3 AV4] (Eterna round: R96, puzzle: Same State NG 3)
59 nM

# return recorded apparent KD of MS2 coat protein for entry UUUGCAUGACGAGGAUAUCAUUUAUAUCUUGAUUGAGAAGGCGUUCUUUUUUUUACCUAACAUGAGGAUCACCCAUGUGACAGU [JR_SSNG1_Sub050] (Eterna round: R96, puzzle: Same State NG 1)
16.1 nM
